- test: NCI Yeast Anticancer Drug Screen. Data for the bub3 strain (AID 167)
- testSettings: S. cerevisiae bub3 mutant strain, at 50.0 µM, stronger effect = higher value
The panel holds about 79,000 compounds, 15% with a hit somewhere; the sample as a whole holds those more often.
# Lookup of reported growth inhibition keyed by entry
measurementType: growth inhibition (%)

# compound, measurementType, testValue
measured = [
    ("Clc1ccc(-c2cc3ccccc3[nH]2)cc1", "growth inhibition", 2.4),
    ("O=C(c1ccc(Cl)cc1Cl)N(/N=C/C=C/c1ccccc1)c1nnc(-c2ccccc2)c(-c2ccccc2)n1", "growth inhibition", 2.2),
    ("N#CCCCCBr", "growth inhibition", 15.6),
    ("CCCCCCCCCCCCOC1OC(COC(C)=O)C(OC(C)=O)C(OC(C)=O)C1OC(C)=O (stereo unspecified) (tested in a mixture with another compound)", "growth inhibition", -2.45),
    ("CCOC(=O)C(=O)Nc1ccccc1CC", "growth inhibition", 11.2),
    ("Nc1nc(=O)[nH]c2n[nH]nc12", "growth inhibition", -2.35),
    ("CC(C)(C)NNC(=O)/C(=C/c1ccc(Oc2ccc(Cl)c(Cl)c2)cc1)NC(=O)c1ccccc1", "growth inhibition", -1.6),
    ("CC(C(c1ccccc1)C(Br)C(=O)c1ccccc1)[N+](=O)[O-] (stereo unspecified)", "growth inhibition", 96.5),
    ("NC(CCC(=O)O)C(=O)NC(Cc1c[nH]c2ccccc12)C(=O)O (stereo unspecified)", "growth inhibition", -22.4),
    ("CCCCc1ccc(NC(=O)c2cccnc2)cc1", "growth inhibition", -3.4),
    ("N#CCC(=O)N1CCCCC1", "growth inhibition", 3.1),
    ("CCCC(C)NC(=O)c1ccc(OCC)cc1 (stereo unspecified)", "growth inhibition", -12.3),
    ("Cn1cc(/C=C/C(=O)c2ccccc2[N+](=O)[O-])c2ccccc21", "growth inhibition", 0.6),
    ("CCNC(=S)NCC", "growth inhibition", 0.4),
    ("NC(N)=NCCS(=O)(=O)O", "growth inhibition", -2.35),
    ("CN1c2ccccc2C(=O)NC12CCN(Cc1ccccc1)CC2", "growth inhibition", 12.3),
]

----------
# Lookup of reported growth inhibition keyed by entry
- test: NCI Yeast Anticancer Drug Screen. Data for the cln2 rad14 strain (AID 165);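 note: 0% = growth equal to vehicle treated cultures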
- testSettings: S. cerevisiae cln2 rad14 strain, at 50.0 µM, stronger effect = higher value
Compounds without any hit were thinned out: in the full panel of roughly 79,000, 15% have a hit.
measurementType: growth inhibition (%)

# compound, measurementType, testValue
records = [
    ("CC(=O)Nc1ccc(C(=O)NN2C(=O)C(Cl)/C2=C/c2ccco2)cc1 (configuration not stated)", "growth inhibition", -4.75),
    ("CCNc1nc2c(N)ncnc2n1C1OC(CO)C(O)C1O (configuration not stated)", "growth inhibition", -3.35),
    ("COc1cc(C2(C)OC(=O)c3ccccc32)c(OC)c2ccccc12 (configuration not stated)", "growth inhibition", 31.3),
    ("O=c1cnc2c(ccc3ccccc32)[nH]1", "growth inhibition", 6.55),
    ("CCOC(=O)c1cccc(OCC)c1", "growth inhibition", -43),
    ("O=S(=O)(CC1=NC2C=CC=CC2N=C1)NCc1ccccc1 (configuration not stated)", "growth inhibition", 30.3),
    ("CCCCS/C=C1\\CC2OC(=O)C3(C)CCCC(C)(C1=O)C23 (configuration not stated)", "growth inhibition", -3),
]

Where do these numbers come from? They come from PubChem BioAssay (NCI).
